target: Calcium-dependent protein kinase 1 (Plasmodium falciparum (isolate 3D7)) (UniProt P62344); test: PfCDPK1 kinase inhibitors, biochemical, TCAMS library (AID 1159585); conditions: recombinant PfCDPK1, Kinase-Glo ATP depletion luminescence;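 further: inhibitors leave more ATP so luminescence rises with inhibition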
Sequence (P62344 whole entry, looked up): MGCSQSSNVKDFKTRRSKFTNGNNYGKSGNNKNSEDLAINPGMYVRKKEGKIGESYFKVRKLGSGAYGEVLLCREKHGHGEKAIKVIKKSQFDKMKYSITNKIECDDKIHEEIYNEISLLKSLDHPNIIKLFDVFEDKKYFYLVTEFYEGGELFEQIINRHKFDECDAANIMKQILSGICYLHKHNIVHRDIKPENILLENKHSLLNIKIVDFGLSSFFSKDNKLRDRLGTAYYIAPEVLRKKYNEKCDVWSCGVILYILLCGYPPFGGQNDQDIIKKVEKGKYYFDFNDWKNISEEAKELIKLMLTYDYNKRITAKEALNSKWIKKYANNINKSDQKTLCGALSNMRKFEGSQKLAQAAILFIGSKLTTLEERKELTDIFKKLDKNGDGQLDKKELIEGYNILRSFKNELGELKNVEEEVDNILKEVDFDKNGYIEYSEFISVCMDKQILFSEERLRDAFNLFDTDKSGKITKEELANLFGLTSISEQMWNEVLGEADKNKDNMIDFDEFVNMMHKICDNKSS
Results with a measured potency or affinity are listed apart. The source made the active and inactive calls. Cut-off not given; nearly all actives show IC50 up to about 0.98 µM.
MEASUREMENT_KIND: outcome

1. Cc1cc(NC(=O)[C@H](CC2CCCCC2)Nc2ccc(C#N)c3ccccc23)ccc1F
inactive
2. CC(C)N1CCN(c2ccc(OCCCCN3CCN(c4cccc(Cl)c4Cl)CC3)cc2Cl)CC1
inactive
3. COCCNCc1cccc(-c2ccc3c(Nc4ccc(F)cc4Cl)ccnc3c2)c1
inactive
4. O=C(Nc1ccc(-c2ccccc2)cc1)Nc1cccc(Cn2nc(Cl)c(N3CCNCC3)cc2=O)c1
inactive
5. O=C(/C=C/c1ccc(Cl)cc1)NCCCCCN1CCCN(C(=O)Nc2ccc(Cl)c(C(F)(F)F)c2)CC1
inactive

Inquiry: Determine its reported outcome: COc1cc2c(cc1C(F)(F)F)N(C(=O)Nc1cc(Br)cc(-c3cccnc3)c1)CC2
Reply text: inactive

Inquiry: Determine its reported outcome: Fc1ccc2nc(-c3ccc(-c4cccc(CN5CCN(c6ccncc6)CC5)c4)cc3)[nH]c2c1
Reply text: inactive

Inquiry: Determine its reported outcome: COc1cccc(Nc2c(C(N)=O)cnc3ccc(-c4ccc(S(C)=O)cc4)cc23)c1 (stereo not given)
Reply text: inactive

Inquiry: Determine its reported outcome: O=C(Nc1ccccc1-c1ccccc1)C1CCCN1C(=O)Nc1ccc(Cl)cc1 (stereo not given)
Reply text: inactive

Inquiry: Determine its reported outcome: Cc1ccc(CNC(=O)[C@H](CCCN)Nc2nc(NCC3CCCCC3)ncc2C)cc1
Reply text: inactive

Inquiry: Determine its reported outcome: Cn1c(O)c(N=NC(=S)N2CCOCC2)c2ccccc21
Reply text: inactive

Inquiry: Determine its reported outcome: Cc1ccc(C)c(NC(=O)NCCNc2ccnc(Nc3ccc(F)cc3)n2)c1
Reply text: inactive

Inquiry: Determine its reported outcome: O=C(NC1CCN(c2ccnc(Nc3ccc(F)cc3)n2)C1)c1cc2ccccc2s1 (stereo not given)
Reply text: inactive

Inquiry: Determine its reported outcome: CN1CCC(COc2ccc(CN3CCC(NC(=O)c4cccc(Cl)c4)CC3)cc2)CC1
Reply text: inactive

Inquiry: Determine its reported outcome: Nc1cccc(CNCc2ccc(-c3cccc(-c4nc5ccc(F)cc5[nH]4)c3)cc2)c1
Reply text: inactive

Inquiry: Determine its reported outcome: Cc1c(F)cc(C(=O)NC2CC2)cc1-c1ccc2c(cnn2S(=O)(=O)c2ccc(C#N)cc2)c1
Reply text: inactive

Inquiry: Determine its reported outcome: c1ccc(-c2ccc(-c3nc4ccccc4[nH]3)cc2)cc1
Reply text: inactive

Inquiry: Determine its reported outcome: O[C@@H](c1ccc2ccccc2c1)[C@@H]1CN(CCc2ccccc2)CC[C@@]1(O)c1ccccc1
Reply text: inactive

Inquiry: Determine its reported outcome: COc1ccc(NC(=O)[C@H](Cc2ccccc2)Nc2cc(C)nc(NCCc3ccccc3)n2)cc1
Reply text: inactive

Inquiry: Determine its reported outcome: CC1CCCCN1S(=O)(=O)c1ccc(NC(=O)c2cc(-c3ccccc3O)n[nH]2)cc1 (stereo not given)
Reply text: inactive

Inquiry: Determine its reported outcome: Cc1ccc(O)cc1C[C@@H]1C(=O)CC[C@@]2(C)[C@H]1CC[C@]2(C)O
Reply text: inactive

Inquiry: Determine its reported outcome: CN1CCN(c2ccc(Nc3ccnc4ccc(-c5ccccc5)cc34)cc2)CC1
Reply text: inactive

Inquiry: Determine its reported outcome: CN1CCN(C(C(=O)NCc2cc(Cl)cc(Cl)c2)c2ccc(NC(=O)Nc3ccccc3)cc2)CC1 (stereo not given)
Reply text: inactive

Inquiry: Determine its reported outcome: CC1(C)N=C(N)N=C(N)N1c1ccc(Oc2ccc(Cl)cc2)c(Cl)c1
Reply text: inactive

Inquiry: Determine its reported outcome: COc1ccc(Nc2ncc3c(-c4cccc(NC(=O)Cc5ccncc5)c4)c[nH]c3n2)cc1OC
Reply text: inactive

Inquiry: Determine its reported outcome: FC(F)(F)c1cc(Nc2ncnc3ccc(Br)cc23)ccc1OCc1ccccc1
Reply text: inactive

Inquiry: Determine its reported outcome: N=C(N)c1ccc(NN=Cc2ccc(Oc3ccc(C(=N)N)cc3)cc2)cc1
Reply text: inactive
